target-or-test-system: EPHB2 (UniProt P29323)
Sequence (P29323 whole entry, looked up): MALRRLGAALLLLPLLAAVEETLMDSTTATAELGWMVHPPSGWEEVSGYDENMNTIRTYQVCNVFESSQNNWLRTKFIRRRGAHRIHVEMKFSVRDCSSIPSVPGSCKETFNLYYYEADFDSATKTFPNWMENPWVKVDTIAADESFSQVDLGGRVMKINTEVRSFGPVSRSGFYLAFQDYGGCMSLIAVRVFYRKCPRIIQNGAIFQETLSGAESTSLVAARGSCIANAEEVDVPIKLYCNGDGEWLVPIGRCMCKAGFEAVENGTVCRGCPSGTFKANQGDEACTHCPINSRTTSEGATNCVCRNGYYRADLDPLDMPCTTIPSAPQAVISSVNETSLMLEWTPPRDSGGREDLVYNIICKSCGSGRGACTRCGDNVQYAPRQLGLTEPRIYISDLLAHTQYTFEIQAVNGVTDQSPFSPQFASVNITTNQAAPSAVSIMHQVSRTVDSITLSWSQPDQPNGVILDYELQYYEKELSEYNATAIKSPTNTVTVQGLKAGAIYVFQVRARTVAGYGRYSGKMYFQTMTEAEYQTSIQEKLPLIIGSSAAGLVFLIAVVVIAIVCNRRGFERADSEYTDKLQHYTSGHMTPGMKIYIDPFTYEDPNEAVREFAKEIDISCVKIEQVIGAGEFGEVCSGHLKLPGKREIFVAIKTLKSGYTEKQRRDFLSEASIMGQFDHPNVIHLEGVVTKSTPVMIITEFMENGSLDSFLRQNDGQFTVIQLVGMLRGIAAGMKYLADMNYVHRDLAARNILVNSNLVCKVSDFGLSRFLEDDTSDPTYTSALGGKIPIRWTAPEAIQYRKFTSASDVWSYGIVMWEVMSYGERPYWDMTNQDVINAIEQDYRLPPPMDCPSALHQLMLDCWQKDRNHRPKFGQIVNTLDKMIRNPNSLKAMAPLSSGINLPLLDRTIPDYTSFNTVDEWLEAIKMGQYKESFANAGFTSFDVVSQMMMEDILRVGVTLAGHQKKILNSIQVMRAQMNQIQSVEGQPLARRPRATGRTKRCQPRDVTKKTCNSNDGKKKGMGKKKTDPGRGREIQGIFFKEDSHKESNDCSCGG
procedure-text: phosphorylation enrichment, bacterial display (enrichment ratio); higher = better substrate or ligand; peptides without Tyr show the background
Hi there, I'd appreciate the recorded phosphorylation enrichment for every entry that follows.
Output spec: single numeric token, no unit.

Exercise: Please give the measured phosphorylation enrichment for this sequence: MEIHAYRKLSE [LMNA_Y376_L380S]
Solution: 0.459

Exercise: Please give the measured phosphorylation enrichment for this sequence: ENQEIYQKAFD [KPNA1_Y493]
Solution: 0.576

Exercise: Please give the measured phosphorylation enrichment for this sequence: EPAVLYNLKER [MYH7_Y103_D107E]
Solution: 0.547

Exercise: Please give the measured phosphorylation enrichment for this sequence: RRESQYQENRG [LRCH3_Y354]
Solution: 0.494

Exercise: Please give the measured phosphorylation enrichment for this sequence: MAQDIYRASFF [ALK_Y1278_R1275Q_YF]
Solution: 0.499

Exercise: Please give the measured phosphorylation enrichment for this sequence: SSNTEYLSASD [INSR_Y999_P997T]
Solution: 0.573

Exercise: Please give the measured phosphorylation enrichment for this sequence: ARGMEYLASQK [FGFR2_Y616]
Solution: 0.461

Exercise: Please give the measured phosphorylation enrichment for this sequence: LASLIYNFILF [AQP6_Y231_V234I]
Solution: 1.28

Exercise: Please give the measured phosphorylation enrichment for this sequence: QYNIQYSSSAA [ERBB2IP_Y981]
Solution: 0.583

Exercise: Please give the measured phosphorylation enrichment for this sequence: VPVPGYTKLPE [SPRR3_Y146]
Solution: 0.642

Exercise: Please give the measured phosphorylation enrichment for this sequence: KKLHKYNTQFQ [PIK3R1_Y452_E451K]
Solution: 0.46

Exercise: Please give the measured phosphorylation enrichment for this sequence: KTGDYYDLYGG [PTPN11_Y63_N58K]
Solution: 7.72

Exercise: Please give the measured phosphorylation enrichment for this sequence: APIEDYGGGGG [B4GALT6_Y382]
Solution: 0.599

Exercise: Please give the measured phosphorylation enrichment for this sequence: TNRSVYFKPSL [NUP153_Y382]
Solution: 0.369

* * *

target-or-test-system: Grb2 SH2 (UniProt P62993)
Sequence (P62993 whole entry, looked up): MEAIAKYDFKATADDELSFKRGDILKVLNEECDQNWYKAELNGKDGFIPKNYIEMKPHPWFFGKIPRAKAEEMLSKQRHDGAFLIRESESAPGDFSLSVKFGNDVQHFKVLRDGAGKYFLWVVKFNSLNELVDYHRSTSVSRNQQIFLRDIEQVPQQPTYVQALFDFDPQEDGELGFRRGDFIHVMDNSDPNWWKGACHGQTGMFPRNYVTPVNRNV
procedure-text: SH2 binding enrichment of the phosphorylated peptide, bacterial display (enrichment ratio); higher = better substrate or ligand; peptides without Tyr show the background
Hi there, I'd appreciate the recorded SH2 binding enrichment for every entry that follows.
Output spec: single numeric token, no unit.

Exercise: Please give the measured SH2 binding enrichment for this sequence: ETRWNYHFEVV [GCNT3_Y267_K266N]
Solution: 0.761

Exercise: Please give the measured SH2 binding enrichment for this sequence: KMKGDYYCYLA [YWHAG_Y130_R132C]
Solution: 0.743

Exercise: Please give the measured SH2 binding enrichment for this sequence: QHVPDYRQNVY [PCDHGA1_Y890]
Solution: 0.886

Exercise: Please give the measured SH2 binding enrichment for this sequence: FVTSMYNEILI [TRPV1_Y310_M315I]
Solution: 0.929

Exercise: Please give the measured SH2 binding enrichment for this sequence: TLKDVCDDGKF [RPS6KA3_Y483_Y483C_YF]
Solution: 1.16

Exercise: Please give the measured SH2 binding enrichment for this sequence: ASNFNYFYHRE [KCNA1_Y413_V408A]
Solution: 0.695

Exercise: Please give the measured SH2 binding enrichment for this sequence: VVTFSYKPPGN [RBL2_Y544]
Solution: 0.979

Exercise: Please give the measured SH2 binding enrichment for this sequence: FPAVGYHKPHI [IDS_Y225_L221P]
Solution: 0.823

Exercise: Please give the measured SH2 binding enrichment for this sequence: IKNSGYISQYL [EIF2AK3_Y585_R588Q]
Solution: 0.939

Exercise: Please give the measured SH2 binding enrichment for this sequence: QMVGKYASSYM [AVPR2_Y124_M123K]
Solution: 1.02

Exercise: Please give the measured SH2 binding enrichment for this sequence: SPQAHYRLSAF [ADAMTS9_Y100_S96P]
Solution: 0.971

Exercise: Please give the measured SH2 binding enrichment for this sequence: TGSFTCEAVEL [MTMR14_Y462_Y462C]
Solution: 0.888

Exercise: Please give the measured SH2 binding enrichment for this sequence: GDYLSYREFHS [ERBIN_Y1107]
Solution: 0.972

meta.source: the supplement of paper PMC10065799
